test system: Multicellular spheroids with hASC and MDA-MB-231; experiment: Permeability value (PV) in the 3D tumor model; settings: PV = EffA:M - 1/2(EffASC + EffMDA), Equation (4); #1
Experiment's PV #1 reference
Lab note: jot the number down without any unit.

[
  {
    "compound": "CC1(C)[C@@H](O[C@H]2O[C@H](C(=O)O)[C@@H](O)[C@H](O)[C@H]2O[C@@H]2O[C@H](C(=O)O)[C@@H](O)[C@H](O)[C@H]2O)CC[C@]2(C)[C@H]3C(=O)C=C4[C@@H]5C[C@@](C)(C(=O)O)CC[C@]5(C)CC[C@@]4(C)[C@]3(C)CC[C@@H]12 [Ammonium-glycyrrhizinate]",
    "observable": "Experiment's PV #1",
    "value": -0.114
  }
]

So for "CC[C@]1(O)C[C@@H]2CN(CCc3c([nH]c4ccccc34)[C@@](C(=O)OC)(c3cc4c(cc3OC)N(C)[C@H]3[C@@](O)(C(=O)OC)[C@H](OC(C)=O)[C@]5(CC)C=CCN6CC[C@]43[C@@H]65)C2)C1" , the logged Experiment's PV #1 turned out to be -0.060

* * *

tested on: Multicellular spheroids with hASC and MDA-MB-231; experiment: Permeability value (PV) in the 3D tumor model; conditions: PV = EffA:M - 1/2(EffASC + EffMDA), Equation (4); #1
observable: Experiment's PV #1

I: CC(=O)O[C@H]1C(=O)[C@@]2(C)[C@H]([C@H](OC(=O)c3ccccc3)[C@]3(O)C[C@H](OC(=O)[C@H](O)[C@@H](NC(=O)c4ccccc4)c4ccccc4)C(C)=C1C3(C)C)[C@]1(OC(C)=O)CO[C@@H]1C[C@@H]2O
II: CCc1c2c(nc3ccc(O)cc13)-c1cc3c(c(=O)n1C2)COC(=O)[C@]3(O)CC [SN38, 7-ethyl-10-hydroxycamptothecin]
Which has the smaller recorded Experiment's PV #1, I or II ? Choose, then provide that item's label.
I
(I: -0.047, II: 0.031)

a: Cn1ncnc1[C@H]1c2n[nH]c(=O)c3cc(F)cc(c23)N[C@@H]1c1ccc(F)cc1
b: COc1cccc2c1C(=O)c1c(O)c3c(c(O)c1C2=O)C[C@@](O)(C(=O)CO)C[C@@H]3O[C@H]1C[C@H](N)[C@@H](O)[C@H](C)O1 [Epirubicin]
Determine, for a and b , which has the greater value of Experiment's PV #1. Choose, then provide that item's label.
a

I: COc1cc([C@@H]2c3cc4c(cc3[C@@H](O[C@@H]3O[C@@H]5CO[C@@H](C)O[C@H]5[C@H](O)[C@H]3O)[C@H]3COC(=O)[C@H]23)OCO4)cc(OC)c1O [Etoposide]
II: CCCCCOC(=O)Nc1nc(=O)n([C@@H]2O[C@H](C)[C@@H](O)[C@H]2O)cc1F
Which has the smaller recorded Experiment's PV #1, I or II ? Choose, then provide that item's label.
II
(II: 0.000, I: 0.029)

* * *

system: Multicellular spheroids with hASC and MDA-MB-231; assay: Permeability value (PV) in the 3D tumor model; details: PV = EffA:M - 1/2(EffASC + EffMDA), Equation (4); #3
observable: Experiment's PV #3

A: CC[C@]1(O)C[C@@H]2CN(CCc3c([nH]c4ccccc34)[C@@](C(=O)OC)(c3cc4c(cc3OC)N(C)[C@H]3[C@@](O)(C(=O)OC)[C@H](OC(C)=O)[C@]5(CC)C=CCN6CC[C@]43[C@@H]65)C2)C1
B: COc1cc([C@@H]2c3cc4c(cc3[C@@H](O[C@@H]3O[C@@H]5CO[C@@H](C)O[C@H]5[C@H](O)[C@H]3O)[C@H]3COC(=O)[C@H]23)OCO4)cc(OC)c1O [Etoposide]
C: CC(=O)O[C@H]1C(=O)[C@@]2(C)[C@H]([C@H](OC(=O)c3ccccc3)[C@]3(O)C[C@H](OC(=O)[C@H](O)[C@@H](NC(=O)c4ccccc4)c4ccccc4)C(C)=C1C3(C)C)[C@]1(OC(C)=O)CO[C@@H]1C[C@@H]2O
D: CCCCCOC(=O)Nc1nc(=O)n([C@@H]2O[C@H](C)[C@@H](O)[C@H]2O)cc1F
E: CN(C)c1nc(N(C)C)nc(N(C)C)n1
Please order the records by their reported Experiment's PV #3, lowest number first. List labels; respect the requested ordering.
A, C, E, D, B

P: COc1cccc2c1C(=O)c1c(O)c3c(c(O)c1C2=O)C[C@@](O)(C(=O)CO)C[C@@H]3O[C@H]1C[C@H](N)[C@@H](O)[C@H](C)O1 [Epirubicin]
Q: CCc1c2c(nc3ccc(O)cc13)-c1cc3c(c(=O)n1C2)COC(=O)[C@]3(O)CC [SN38, 7-ethyl-10-hydroxycamptothecin]
R: Cn1ncnc1[C@H]1c2n[nH]c(=O)c3cc(F)cc(c23)N[C@@H]1c1ccc(F)cc1
Please list these compounds in decreasing order of Experiment's PV #3. List labels; respect the requested ordering.
R, Q, P
